// provenance: the supplement of paper PMC11780869

test system: Bacillus subtilis; assay: cleaved RNA product abundance (RNA/gDNA barcode ratio) relative to median wild-type variant (ratio to wild type); higher = more accumulation of the downstream cleavage product; conditions: experiment (reporter, strain, medium): exp 4a: truncated aprE reporter, strain BJT201 with 2% xylose (RNase J1 expressed); cleavage site: cggR-gapA (positions -7 to +36 mutated)
Would you mind telling me the reported cleaved RNA product abundance of each entry?
Answer using only a numeral; do not append any unit.

For reference, reported cleaved RNA product abundance for ACAGACGAAGGAGCCGCAAAGAAGTTATTAAGGGATGAGTAATCCCTCAATATAAATATCTCTCACTTATTTAAA stands at 0.596

For reference, reported cleaved RNA product abundance for ACAGACGAAGGAGCCGCAAAGAAGTTATTAATGGATGAATAATCCCTCAATATAAAAATCTCTCACTTATTTAAA stands at 0.156

For reference, reported cleaved RNA product abundance for ACAGACGAAGGAGCCGCAAAGAAGTTATTAAGTGATGAATACTCCCTCAATATAAATATCTCTCACTTATTTAAA stands at 0.181

For reference, reported cleaved RNA product abundance for ACAGACGAAGGAGCCGCAAAGAAGTTATTAAAGGATGAATAATCCCTCAATATATATATCTCTCACTTATTTAAA stands at 0.16

For reference, reported cleaved RNA product abundance for ACAGACGAAGGAGCCGCAAAGAAGTGATTAAGAGATGAATAATCCCTCAATATAAATATCTCTCACTTATTTAAA stands at 0.133

For reference, reported cleaved RNA product abundance for ACAGACGAAGGAGCCGCAAAAAAGTTATTAAGGCATGAATAATCCCTCAATATAAATATCTCTCACTTATTTAAA stands at 0.126

For reference, reported cleaved RNA product abundance for ACAGACGAAGGAGCCGCAAAGAAGTTATTAAGGGTTGAATAATCACTCAATATAAATATCTCTCACTTATTTAAA stands at 0.127

For reference, reported cleaved RNA product abundance for ACAGACGAAGGAGCCGCAAAGAAGTTATTAAGAGATGAATAATGCCTCAATATAAATATCTCTCACTTATTTAAA stands at 0.1

For reference, reported cleaved RNA product abundance for ACAGACGAAGGAGCCGCAAGGAAGTTATTAAGGGATGAATAATCTCTCAATATAAATATCTCTCACTTATTTAAA stands at 0.86

For reference, reported cleaved RNA product abundance for ACAGACGAAGGAGCCGCAAAGAAGTTATTAAGTGATGAATAATCCCTCTATATAAATATCTCTCACTTATTTAAA stands at 0.128

For reference, reported cleaved RNA product abundance for ACAGACGAAGGAGCCGCAAAGAAGTTATTAAAGGATGCATAATCCCTCAATATAAATATCTCTCACTTATTTAAA stands at 0.312

For reference, reported cleaved RNA product abundance for ACAGACGAAGGAGCCGCAAAGAAGATATTAAGGGATAAATAATCCCTCAATATAAATATCTCTCACTTATTTAAA stands at 0.78

For reference, reported cleaved RNA product abundance for ACAGACGAAGGAGCCGCAAAGAGGTTATTAATGGATGAATAATCCCTCAATATAAATATCTCTCACTTATTTAAA stands at 0.0978

For reference, reported cleaved RNA product abundance for ACAGACGAAGGAGCCGCATAGAAGTTAATAAGGGATGAATAATCCCTCAATATAAATATCTCTCACTTATTTAAA stands at 0.304

For reference, reported cleaved RNA product abundance for ACAGACGAAGGAGCCGCAAAGAAGTTATAAACGGATGAATAATCCCTCAATATAAATATCTCTCACTTATTTAAA stands at 0.181
